Cited source: paper PMC6471485

// IC50 collected for UniProt Q9UGL1
Sequence (Q9UGL1 whole entry): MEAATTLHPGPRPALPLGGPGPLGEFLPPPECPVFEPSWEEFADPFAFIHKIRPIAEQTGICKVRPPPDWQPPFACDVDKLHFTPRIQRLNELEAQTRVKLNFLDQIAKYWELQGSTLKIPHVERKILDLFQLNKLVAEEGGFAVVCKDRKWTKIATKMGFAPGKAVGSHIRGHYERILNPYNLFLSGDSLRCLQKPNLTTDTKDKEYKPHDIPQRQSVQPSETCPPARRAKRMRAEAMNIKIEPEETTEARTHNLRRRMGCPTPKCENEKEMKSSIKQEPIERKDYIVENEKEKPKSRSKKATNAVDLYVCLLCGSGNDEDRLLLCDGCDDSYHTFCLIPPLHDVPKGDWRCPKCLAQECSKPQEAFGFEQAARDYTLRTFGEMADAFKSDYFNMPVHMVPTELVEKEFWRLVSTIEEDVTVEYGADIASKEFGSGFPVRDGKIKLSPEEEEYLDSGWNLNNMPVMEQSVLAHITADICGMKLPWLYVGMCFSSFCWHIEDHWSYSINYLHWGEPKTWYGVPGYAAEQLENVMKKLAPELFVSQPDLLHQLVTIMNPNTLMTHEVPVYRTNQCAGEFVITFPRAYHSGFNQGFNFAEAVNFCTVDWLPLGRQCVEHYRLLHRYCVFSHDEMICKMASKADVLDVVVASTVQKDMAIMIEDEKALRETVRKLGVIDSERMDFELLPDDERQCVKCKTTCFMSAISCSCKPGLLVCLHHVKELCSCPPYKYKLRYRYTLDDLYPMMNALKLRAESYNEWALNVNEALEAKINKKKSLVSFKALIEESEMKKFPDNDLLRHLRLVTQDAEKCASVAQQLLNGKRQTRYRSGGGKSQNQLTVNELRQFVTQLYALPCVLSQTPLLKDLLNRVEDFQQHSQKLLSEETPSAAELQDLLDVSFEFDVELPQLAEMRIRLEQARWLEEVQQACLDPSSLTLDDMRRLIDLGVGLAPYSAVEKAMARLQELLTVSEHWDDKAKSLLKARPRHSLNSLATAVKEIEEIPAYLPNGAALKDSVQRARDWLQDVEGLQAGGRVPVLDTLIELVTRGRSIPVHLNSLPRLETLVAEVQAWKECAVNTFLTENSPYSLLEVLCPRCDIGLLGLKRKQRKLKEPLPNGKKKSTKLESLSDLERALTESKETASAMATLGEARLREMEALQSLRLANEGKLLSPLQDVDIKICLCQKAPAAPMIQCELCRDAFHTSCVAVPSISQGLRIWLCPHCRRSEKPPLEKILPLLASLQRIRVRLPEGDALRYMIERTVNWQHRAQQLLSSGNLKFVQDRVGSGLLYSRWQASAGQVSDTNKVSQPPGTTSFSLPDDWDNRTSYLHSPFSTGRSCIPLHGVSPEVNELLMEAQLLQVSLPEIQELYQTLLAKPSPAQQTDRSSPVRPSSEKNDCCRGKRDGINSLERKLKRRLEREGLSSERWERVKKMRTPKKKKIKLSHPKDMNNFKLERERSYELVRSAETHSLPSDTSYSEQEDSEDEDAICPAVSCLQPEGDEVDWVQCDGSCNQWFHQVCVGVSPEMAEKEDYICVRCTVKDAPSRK

*Q* Hello, please tell me recorded IC50 for this one: Cn1c(O)c(C(=O)CCc2ccccc2)c(=O)n(C)c1=O [compound 26]
*A* > 100 µM

*Q* Hello, please tell me recorded IC50 for this one: Cn1c(O)c(C(=O)CCc2cccs2)c(=O)n(C)c1=O [compound 42]
*A* > 100 µM

* * *

Target: MINA53 (Homo sapiens)
Construct: 1-464 and NO66116-641 were cloned into pFB-LIC-Bse; His (N); made in house; host or cells: Sf9 insect cells
Sequence (Q8IUF8 1-464 limits assumed): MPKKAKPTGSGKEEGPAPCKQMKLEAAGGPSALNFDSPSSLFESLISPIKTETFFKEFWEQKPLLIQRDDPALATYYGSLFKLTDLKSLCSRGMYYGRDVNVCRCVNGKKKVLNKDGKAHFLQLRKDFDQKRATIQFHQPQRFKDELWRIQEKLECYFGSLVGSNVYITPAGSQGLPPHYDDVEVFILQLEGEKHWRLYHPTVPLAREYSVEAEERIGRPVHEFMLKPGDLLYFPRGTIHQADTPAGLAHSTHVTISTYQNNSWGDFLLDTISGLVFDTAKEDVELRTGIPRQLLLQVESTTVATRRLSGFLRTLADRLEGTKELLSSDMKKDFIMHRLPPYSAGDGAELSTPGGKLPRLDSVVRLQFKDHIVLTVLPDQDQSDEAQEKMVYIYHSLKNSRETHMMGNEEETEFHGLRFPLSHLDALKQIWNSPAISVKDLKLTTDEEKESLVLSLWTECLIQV
Assay: MINA53 IC50 determination, RapidFire MS
Type: biochemical
measured.parameter: IC50

*Q* Hello, please tell me recorded IC50 for this one: Cn1c(O)c(C(=O)CCc2ccccc2)c(=O)n(C)c1=O
*A* > 100 µM

*Q* Hello, please tell me recorded IC50 for this one: Cn1c(O)c(C(=O)CCc2cccs2)c(=O)n(C)c1=O
*A* > 100 µM

* * *

// pIC50 collected for JARID1C (Homo sapiens, UniProt P41229)
pIC50: −log10 of the molar value.

*Q* Hello, please tell me recorded pIC50 for this one: Cn1c(O)c(C(=O)CCc2cccs2)c(=O)n(C)c1=O [compound 42]
*A* < 4.00

*Q* Hello, please tell me recorded pIC50 for this one: Cn1c(O)c(C(=O)CCc2ccccc2)c(=O)n(C)c1=O [compound 26]
*A* < 4.00

* * *

// pIC50 collected for PHD2181-426 (Homo sapiens, UniProt Q9GZT9)
pIC50: −log10 of the molar value.

*Q* Hello, please tell me recorded pIC50 for this one: Cn1c(O)c(C(=O)CCc2ccccc2)c(=O)n(C)c1=O
*A* < 4.00

*Q* Hello, please tell me recorded pIC50 for this one: Cn1c(O)c(C(=O)CCc2cccs2)c(=O)n(C)c1=O
*A* < 4.00

* * *

Experiment: MDR1-MDCK in vitro permeability assay (Cyprotex)
Format: in vitro ADME
Conditions: dog; MDR1-MDCK; read-out: permeability coefficient
Please provide measured Papp for the entries that follow.
Give the value in ×10⁻⁶ cm/s but do not write ×10⁻⁶ cm/s after it.

*Q* Hello, please tell me recorded Papp for this one: Cn1c(O)c(C(=O)CCc2cccs2)c(=O)n(C)c1=O
*A* 62.7

*Q* Hello, please tell me recorded Papp for this one: Cn1c(O)c(C(=O)CCc2ccccc2)c(=O)n(C)c1=O
*A* 58.5

* * *

Molecular target: OGFOD1 (Homo sapiens, UniProt Q8N543)
Sequence (Q8N543 whole entry): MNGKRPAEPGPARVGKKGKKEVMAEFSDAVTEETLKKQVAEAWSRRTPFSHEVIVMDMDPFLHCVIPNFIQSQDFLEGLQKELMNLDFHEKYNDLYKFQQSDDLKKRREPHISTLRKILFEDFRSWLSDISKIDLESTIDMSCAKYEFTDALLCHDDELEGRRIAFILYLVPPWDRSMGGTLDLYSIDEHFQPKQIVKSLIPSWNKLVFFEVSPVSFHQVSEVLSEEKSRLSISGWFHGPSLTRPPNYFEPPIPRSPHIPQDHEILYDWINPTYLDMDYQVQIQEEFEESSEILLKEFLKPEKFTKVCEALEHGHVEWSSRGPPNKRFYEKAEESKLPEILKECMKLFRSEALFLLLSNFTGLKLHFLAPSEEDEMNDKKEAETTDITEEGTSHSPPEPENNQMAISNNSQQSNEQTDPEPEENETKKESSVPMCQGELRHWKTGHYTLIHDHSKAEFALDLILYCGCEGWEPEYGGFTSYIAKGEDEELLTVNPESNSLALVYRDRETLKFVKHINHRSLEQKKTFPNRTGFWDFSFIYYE
Assay: OGFOD1 inhibition assay: hydroxylation of RPS23 51-70 peptide by MALDI-TOF MS
Format: biochemical
Details: inhibitor 100 µM, OGFOD1 1 µM (Figures S1, S2)
Method: OGFOD1 inhibition assays were performed by determining the extent of hydroxylation of a 20mer fragment of human ribosomal protein S23 (RPS23) containing residues 51-70 (H2N- […] OGFOD1 was pre-incubated with inhibitor for 5 min before initiation of the reaction via the addition of the other reagents. […] Dose-responses were assessed in 8-point triplicates, normalized to a no enzyme negative control and a no inhibitor positive control. […]
measured.parameter: inhibition of OGFOD1 hydroxylation activity, in words

[
  {
    "molecule": "O=C(O)CNC(=O)c1nc(Cl)c2ccccc2c1O [compound 7, reference compound]",
    "observed.measurement": "inhibited OGFOD1"
  },
  {
    "molecule": "Cc1nc(C(=O)NCC(=O)O)c(O)c2ccc(Oc3ccccc3)cc12 [compound 8, reference compound]",
    "observed.measurement": "inhibited OGFOD1"
  },
  {
    "molecule": "O=C(O)CNC(=O)c1c(O)c2ccccc2n(Cc2ccccc2)c1=O [compound 9, reference compound]",
    "observed.measurement": "inhibited OGFOD1"
  }
]
